- Tested on: MDA-N
- PROCEDURE_SUMMARY: NCI tumour cell line growth inhibition, 48 h
Peptide text beside a SMILES is read from it. * marks the point of attachment. Boc = CC(C)(C)OC(=O)*; OBn = c1ccc(CO*)cc1
READOUT_KIND: TGI

COMPOUND	READOUT_KIND	OBSERVED_MEASUREMENT
Nc1cn(Cc2ccccc2)c2nc(/C=C3/C=CC=CC3=O)c(O)n12	TGI	> 100 µM
O=C(CCc1ccc(O)cc1)NCCc1cccc(OCc2ccccc2)c1	TGI	68.4 µM
CCC(=O)NC(Nc1ccc(O)cc1)(C(F)(F)F)C(F)(F)F	TGI	35.3 µM
COc1cc(C2c3cc4c(cc3OC(Nc3ccccc3)C2C)OCO4)cc(OC)c1OC (stereo not given)	TGI	0.784 µM
O=C(O)c1ccc(Nc2nc3ccccc3nc2-c2cccs2)cc1	TGI	> 100 µM

Okay, here is my list. What is TGI for each of these?
1. Cc1cccc(Cl)c1NC(=O)/C=C/c1ccccc1
2. COc1cccc2c(Nc3ccc(S(=O)(=O)NC(C)=O)cc3)c3ccc([N+](=O)[O-])cc3nc12
3. O=C1c2ccccc2-c2ccc(N=Nc3c(O)ccc4ccccc34)cc21

1. > 100 µM
2. > 100 µM
3. > 100 µM

Below are some compounds; for each one, tell me its TGI.
1. CC(NC(=O)CNC(=O)OC(C)(C)C)C(=O)NC(Cc1ccccc1)C(=O)OCc1ccccc1 (stereo not drawn) (Boc-Gly-Ala-Phe-OBn; configuration not given here)
2. CCSC1=N/C(=C\c2ccco2)C(Cl)=N1

> 100 µM
> 100 µM

----------
- Tested on: SK-OV-3 ovarian
- PROCEDURE_SUMMARY: NCI tumour cell line growth inhibition, 48 h
Where a SMILES comes first, the peptide text is derived from it. [ ]: non-standard residue; d: D form. The star is where a group is joined. ξ: configuration not given here. NMeN = CN[C@@H](CC(N)=O)C(=O)O; NMeV = CN[C@H](C(=O)O)C(C)C; ξNMeV = CNC(C(=O)O)C(C)C; Boc = CC(C)(C)OC(=O)*; ξNMeA = CNC(C)C(=O)O
READOUT_KIND: TGI

COMPOUND	TGI
COc1cc(C=Nc2ccc(C(C)C)cc2)cc(OC)c1OC	> 100 µM

Please look at the items below and tell me TGI for each one, in order.
1. COc1ccc2c(c1)CCc1[nH]c3ccccc3c1CCCC2
2. N=C(N)c1csc([C@@H]2O[C@H](CO)[C@@H](O)[C@H]2O)n1
3. C1CCN(C2OC3C(COC3N3CCCCC3)OC2OC2CCO[C@@H]2N2CCCCC2)CC1 (stereo not given in full)
4. c1cn2cc(-c3ccc4ncn(C5CCCCC5)c4c3)nc(-c3ccc4c(c3)ncn4C3CCCCC3)c2n1
5. CC1=C(C(=O)NCCc2ccccc2)CC(C(=O)NCCc2ccccc2)=C(C)N1
6. CSC1=N/C(=C\c2ccco2)C(=O)N1CN1CCCCC1
7. COC(=O)C(C)N(C)C(=O)[C@H](CC(N)=O)N(C)C(=O)[C@@H]1CCCN1C(=O)[C@H](C(C)C)N(C)C(=O)C(C(C)C)N(C)C(=O)[C@@H](NC(=O)OC(C)(C)C)C(C)C (stereo not given in full) (Boc-V[ξNMeV][NMeV]P[NMeN][ξNMeA]-OMe)
8. O=C(C[n+]1ccccc1)N=N/C(C(=O)Nc1c(Cl)c(O)c2ccccc2c1O)=C1/C(=O)Oc2cc(O)ccc2C1=O

1: > 10 µM; 2: > 100 µM; 3: > 100 µM; 4: 4.1 µM; 5: > 100 µM; 6: > 100 µM; 7: > 100 µM; 8: 27.9 µM

// compound O=[N+]([O-])c1ccc2[nH]ncc2c1Cl , assay SK-OV-3 ovarian, TGI value: > 100 µM

----------
- Tested on: SK-MEL-5 melanoma
- PROCEDURE_SUMMARY: NCI tumour cell line growth inhibition, 48 h
READOUT_KIND: TGI

Here is how some compounds turned out for TGI.
COMPOUND	OBSERVED_MEASUREMENT
O=CN1N=C(c2ccc(Cl)cc2)CC1c1cccc(Nc2ccnc3cc(Cl)ccc23)c1 (configuration not stated)	1.93 µM
O=C(O)c1ccc2c(c1)CC1(C2)Cc2ccccc2C1=O (configuration not stated)	> 100 µM
CCCCC(=O)NC1(c2cc3ccccc3s2)CCCCC1	> 100 µM
CN(/N=C/c1ccccn1)C1=NCCCCN1	> 100 µM
CCOP(=O)(OCC)c1ccc(=O)[nH]c1-c1cccs1	> 100 µM
COc1cccc2c(Nc3ccc(S(=O)(=O)NC(C)=O)cc3)c3ccc([N+](=O)[O-])cc3nc12	> 78.3 µM
CCOC(=O)C1C(c2ccc(OC)cc2)c2c([nH][nH]c2=O)CC1(O)OCC (configuration not stated)	> 100 µM
CC(C)(C)[Si](C)(C)OCC1CCC(n2cnc3c(N)ncnc32)O1 (configuration not stated)	34.4 µM
Cc1ccc(S(=O)(=O)NC2C(=O)c3ccccc3C(=O)C2n2cnc3ccccc32)cc1 (configuration not stated)	42.6 µM
CCc1nc(N)nc(C(=O)NCCNC(=O)c2nc(N)nc(CC)c2C)c1C	> 100 µM

# map each compound to its TGI
1. CCOc1ccc(Nc2nc(-c3ccc4c(c3)NC(=O)CO4)cs2)cc1
2. NC(=N\N=C/c1cccc([N+](=O)[O-])c1)/C(N)=N\N=C/c1cccc([N+](=O)[O-])c1
3. CCC[CH2][Sn]([CH2]CCC)([O]C(=O)C(N)CSC)[O]C(=O)C(N)CSC (configuration not stated)
4. COc1cc(C(c2cc3c(cc2O)OCO3)N2CCCCC2)cc(OC)c1OC (configuration not stated)
5. CN(C)C(=O)Nc1cc2c3c(c1)CCCN3CCC2
6. COC(=O)C1=Cc2cc(OC)c(O)cc2[C@@H](c2ccc(O)c(OC)c2)[C@@H]1C(=O)OC
7. Cc1cc(N2CCCC2)nc(NC2CCCC(Nc3ccnc4cc(Cl)ccc34)C2)n1 (configuration not stated)
8. CNn1c(C)n[nH]c1=O

1. 3.5 µM
2. > 100 µM
3. 25 µM
4. 34.6 µM
5. > 10 µM
6. > 100 µM
7. 3.09 µM
8. > 100 µM

Answer for every listed entry: what is its TGI? The entries follow.
1. CC(=O)NC1C(O)C(O)C(CO)OC1n1ncc(=O)[nH]c1=O (configuration not stated)
2. O=c1[nH]ccc2nc(N3CCC(O)CC3)nc(Nc3cccc(C(F)(F)F)c3)c12

["> 100 µM", "2.5 µM"]

Please state, for each entry, its recorded TGI.
1. O=C1c2c(ccc3c2CCC3)CC12Cc1cc3c(cc1C2)CCC3
2. Cc1cc2cc3c(C)cc(=O)oc3c(C)c2o1

["> 100 µM", "> 100 µM"]

----------
- System: COLO 205 colon
- PROCEDURE_SUMMARY: NCI tumour cell line growth inhibition, 48 h; in the data active means GI50 below about 0.43 µM; inactive means the rest
Where a SMILES comes first, the peptide text is derived from it. [ ]: non-standard residue; d: D form. The star is where a group is joined. ξ: configuration not given here. NMeN = CN[C@@H](CC(N)=O)C(=O)O; NMeV = CN[C@H](C(=O)O)C(C)C; ξNMeV = CNC(C(=O)O)C(C)C; Boc = CC(C)(C)OC(=O)*; ξNMeA = CNC(C)C(=O)O
Log the outcome using a class from active, inactive

Answered cases to consult:
COMPOUND	CLASS_ASSIGNMENT
Cc1cc(-c2nnc(N)nc2-c2ccc(F)cc2)cc(Cl)n1	inactive
O=c1[nH]ccc2nc(N3CCC(O)CC3)nc(Nc3cccc(C(F)(F)F)c3)c12	inactive
Nc1ccc2c3c(n(CCCCl)c(=O)c2c1)-c1cc2c(cc1C3=O)OCO2	inactive
C=C[C@H]1CCC/C=C/[C@@H]2C[C@H](O)C[C@H]2[C@H](O)/C=C/C(=O)O1	active
COC(=O)C(C)N(C)C(=O)[C@H](CC(N)=O)N(C)C(=O)[C@@H]1CCCN1C(=O)[C@H](C(C)C)N(C)C(=O)C(C(C)C)N(C)C(=O)[C@@H](NC(=O)OC(C)(C)C)C(C)C (some centres not stated) (Boc-V[ξNMeV][NMeV]P[NMeN][ξNMeA]-OMe)	inactive

Record request — test call for CC[O-].CC[O-].O=C1C(c2ccccc2)=C([O-])c2ccccc21.O=C1C(c2ccccc2)=C([O-])c2ccccc21.[Ti+4]
inactive

// return assay outcome for CC/C(=C(/CC)c1ccc(O)cc1)c1ccc([O-])cc1.CC/C(=C(/CC)c1ccc(O)cc1)c1ccc([O-])cc1.O=C([CH-]C(=O)c1ccccc1)c1ccccc1.O=C([CH-]C(=O)c1ccccc1)c1ccccc1.[Ti+4]
inactive

----------
Field: TGI. Provide a value for each of the compounds that follow.
- Tested on: CCRF-CEM leukemia
- PROCEDURE_SUMMARY: NCI tumour cell line growth inhibition, 48 h

Take each entry in turn and give its TGI.
1. Nc1nc(=S)[nH]c(C(=O)Nc2ccc(Cl)c(Cl)c2)c1-c1ccc(Cl)cc1
2. CC1=NN(c2nc(N)nc(CSCc3nc(N)nc(N(C)C)n3)n2)C(C)(C)C1
3. COc1ccc2c(c1)CCc1[nH]c3ccccc3c1CCCC2
4. COC(=O)C12CC(c3ccccc31)C1C(=O)OC(=O)C12 (stereo not given)
5. COc1ccc(C(c2c[nH]c3ccc(Br)cc23)c2c[nH]c3ccc(Br)cc23)cc1
6. COc1ccc(C(=O)OC2C=COC(C)C2OC(=O)c2ccc(OC)cc2)cc1 (stereo not given)

> 100 µM
> 100 µM
> 10 µM
> 100 µM
0.436 µM
52.4 µM
